# Assay: qHTS assay to identify small molecule that activate the aryl hydrocarbon receptor (AhR) signaling pathway - cell viability counter screen (AID 743086); further: nearly all actives have a fitted effect of over 45% in size
# Experimental Parameters: HepG2-AhR-luc viability, CellTiter-Fluor, 24 h; series mostly up to 70.3 µM
Records with an inconclusive call do not appear. Active and inactive are the calls of the source. The call rests on the fitted dose curve; in most records, active means well fitted cell-killing curve with a large enough effect in the repeat runs; inconclusive means weak or mixed curves, or effect the other way; inactive means flat fitted curve, though single readings scatter.
Bench note: report the call from active, inactive

Molecule	Label
CC(C)(C)C(=O)OCOC(=O)C1N2C(=O)CC2S(=O)(=O)C1(C)C (configuration not stated)	inactive
Oc1ccc(Cl)cc1Sc1cc(Cl)ccc1O	inactive
Cc1cc2c(cc1C(F)(F)F)N(C(=O)Nc1ccc(Oc3cccnc3C)nc1)CC2	inactive

Recorded call for CCN(CC)CCCC(C)Nc1c2ccc(Cl)cc2nc2ccc(OC)cc12 (configuration not stated) ?
inactive

Recorded call for `C=CC(=O)OCC(CO)(COCC(COC(=O)C=C)(COC(=O)C=C)COC(=O)C=C)COC(=O)C=C` ?
active

Recorded call for `NNc1nc(-c2ccc([N+](=O)[O-])cc2)cs1` ?
inactive

Recorded call for `O=CC=C(c1ccccc1)c1ccccc1` ?
inactive

====

# Assay: qHTS RealTime-Glo MT Cell Viability Assay in HepG2 cells - 32 hour (AID 1224877); further: nearly all actives have a fitted effect of over 55% in size
# Experimental Parameters: RealTime-Glo luminescence; series mostly up to 76.8 µM
Inconclusive results are not listed. Active and inactive are the calls of the source. Calls follow the shape of the dose curve; as a rule, active = well fitted cell-killing curve with a large enough effect in the repeat runs; inconclusive = weak or mixed curves; inactive = flat fitted curve, though single readings scatter.
Bench note: report the call from active, inactive

Consider the following illustrative entries.
Molecule	Label
Cc1nc(-c2ccc3c(c2)CCN(CCC2CCC(NC(=O)/C=C/c4ccc(F)cc4)CC2)CC3)no1 (stereo not drawn)	inactive
CC(C)(C)C(=O)OCOC(=O)[C@@H]1N2C(=O)[C@@H](NC(=O)[C@H](N)c3ccccc3)[C@H]2SC1(C)C	inactive
Cc1cccc(S(=O)(=O)O)c1C	inactive
CCc1oc2ccccc2c1C(=O)c1cc(Br)c(O)c(Br)c1	inactive
Cc1cc(N)c(S(=O)(=O)O)cc1Cl	inactive
Cc1cc(O)c(C(C)(C)C)cc1Sc1cc(C(C)(C)C)c(O)cc1C	active

Recorded call for CSc1ccc2c(c1)C(N1CCN(C)CC1)Cc1ccccc1S2 (stereo not drawn) ?
active

Recorded call for COC(=O)C1=C(C)NC(C)=C(C(=O)OCC(C)C)C1c1ccccc1[N+](=O)[O-] (stereo not drawn) ?
active

Recorded call for `O=C1c2c(O)ccc(Nc3ccc(CCO)cc3)c2C(=O)c2c([N+](=O)[O-])ccc(O)c21` ?
inactive

Recorded call for CCC(C)(C)C1CCCCC1OC(C)=O (stereo not drawn) ?
inactive

Recorded call for `C=C(C)C(=O)OCC[N+](C)(C)C` ?
inactive

Recorded call for O=C(OCC1CO1)C1CCCCC1C(=O)OCC1CO1 (stereo not drawn) ?
inactive

Recorded call for `CC(C)CCCCCCCCCCCCCCC(=O)O` ?
inactive

Recorded call for `COc1cc(-c2nc(NC(=O)c3cc4cc(C)cc(C)c4n3CC(=O)O)sc2CCC2CCCCC2)c(OC)cc1Cl` ?
active

Recorded call for `O=C(OCC(COC(=O)c1ccccc1)(COC(=O)c1ccccc1)COC(=O)c1ccccc1)c1ccccc1` ?
inactive

Recorded call for `Nc1nc2ccccc2n1Cc1ccc(F)cc1` ?
inactive

Recorded call for `OC1(c2ccc(Cl)c(C(F)(F)F)c2)CCN(CCCC(c2ccc(F)cc2)c2ccc(F)cc2)CC1` ?
active

Recorded call for `CCCCCCCCCCC=O` ?
inactive

Recorded call for `Clc1ccc2cc3ccccc3cc2c1` ?
inactive

Recorded call for `Cc1onc(-c2c(Cl)cccc2Cl)c1C(=O)N[C@@H]1C(=O)N2[C@@H]1SC(C)(C)[C@@H]2C(=O)O` ?
inactive

Data origin: PubChem BioAssay (Tox21)
